- TESTED TARGET: JAK3 (Homo sapiens, UniProt P52333)
- Construct: endogenous in cells
- Sequence (P52333 1-1124): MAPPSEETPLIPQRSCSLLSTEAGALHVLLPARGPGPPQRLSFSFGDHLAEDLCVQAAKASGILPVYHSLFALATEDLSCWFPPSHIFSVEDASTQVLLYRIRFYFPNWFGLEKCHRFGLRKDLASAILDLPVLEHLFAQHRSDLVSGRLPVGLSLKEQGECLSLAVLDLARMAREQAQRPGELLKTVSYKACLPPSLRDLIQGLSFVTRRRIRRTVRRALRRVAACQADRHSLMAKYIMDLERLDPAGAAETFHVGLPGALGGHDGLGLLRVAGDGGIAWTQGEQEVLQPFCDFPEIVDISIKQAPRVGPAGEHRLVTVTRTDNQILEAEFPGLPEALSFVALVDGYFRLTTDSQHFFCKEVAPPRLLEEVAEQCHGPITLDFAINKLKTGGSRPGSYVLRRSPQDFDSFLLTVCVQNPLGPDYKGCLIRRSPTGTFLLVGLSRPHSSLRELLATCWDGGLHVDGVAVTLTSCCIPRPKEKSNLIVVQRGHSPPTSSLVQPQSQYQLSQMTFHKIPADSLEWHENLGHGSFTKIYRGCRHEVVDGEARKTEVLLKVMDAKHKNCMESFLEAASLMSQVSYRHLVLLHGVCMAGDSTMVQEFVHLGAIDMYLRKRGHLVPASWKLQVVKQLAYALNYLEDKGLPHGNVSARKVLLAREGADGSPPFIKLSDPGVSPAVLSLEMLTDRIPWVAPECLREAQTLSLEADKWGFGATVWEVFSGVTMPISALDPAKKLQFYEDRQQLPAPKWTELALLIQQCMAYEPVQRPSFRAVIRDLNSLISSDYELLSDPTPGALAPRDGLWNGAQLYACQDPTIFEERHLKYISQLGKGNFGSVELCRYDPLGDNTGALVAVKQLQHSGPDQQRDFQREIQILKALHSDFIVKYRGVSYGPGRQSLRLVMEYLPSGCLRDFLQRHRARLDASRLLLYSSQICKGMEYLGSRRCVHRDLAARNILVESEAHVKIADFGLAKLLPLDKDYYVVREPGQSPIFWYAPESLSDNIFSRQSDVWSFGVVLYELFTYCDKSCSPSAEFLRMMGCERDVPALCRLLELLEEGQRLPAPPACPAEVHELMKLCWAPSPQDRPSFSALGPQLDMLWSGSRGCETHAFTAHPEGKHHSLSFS
- EXPERIMENT DESCRIPTION: JAK3 kinobeads assay
- EXPERIMENTAL SETUP: cell lysate, dot blot with JAK3 specific antibody
pIC50: −log10 of the molar value.
pIC50 for assorted molecules

Illustrative cases are given below, each with its answer.
{"ITEM SMILES": "CS(=O)(=O)Nc1ccccc1Nc1nc(Nc2ccon2)ncc1Cl", "TESTED TARGET": "JAK3 (Homo sapiens, UniProt P52333)", "QUANTITY": "pIC50", "EXPERIMENTAL RESULT": "≥ 7.00"}
{"ITEM SMILES": "Cc1cc(Nc2ncc(Br)c(Nc3ccccc3NS(C)(=O)=O)n2)nn1C", "TESTED TARGET": "JAK3 (Homo sapiens, UniProt P52333)", "QUANTITY": "pIC50", "EXPERIMENTAL RESULT": "≥ 7.00"}

# input molecule: "CCCn1ccc(Nc2ncc(Cl)c(Nc3ccccc3NS(C)(=O)=O)n2)n1" ; wanted: its pIC50
≥ 7.00

# input molecule: "Cc1nn(CC(F)F)cc1Nc1ncc(Cl)c(Nc2ccccc2NS(C)(=O)=O)n1" ; wanted: its pIC50
≥ 7.00

# input molecule: "Cc1cc(Nc2ncc(F)c(Nc3ccccc3NS(C)(=O)=O)n2)nn1CC(F)(F)F" ; wanted: its pIC50
5.00 to 6.00

Data credit: patent US20120172384A1
